- TARGET: 5-HT2BR wild-type (Homo sapiens)
- Sequence (P41595 whole entry): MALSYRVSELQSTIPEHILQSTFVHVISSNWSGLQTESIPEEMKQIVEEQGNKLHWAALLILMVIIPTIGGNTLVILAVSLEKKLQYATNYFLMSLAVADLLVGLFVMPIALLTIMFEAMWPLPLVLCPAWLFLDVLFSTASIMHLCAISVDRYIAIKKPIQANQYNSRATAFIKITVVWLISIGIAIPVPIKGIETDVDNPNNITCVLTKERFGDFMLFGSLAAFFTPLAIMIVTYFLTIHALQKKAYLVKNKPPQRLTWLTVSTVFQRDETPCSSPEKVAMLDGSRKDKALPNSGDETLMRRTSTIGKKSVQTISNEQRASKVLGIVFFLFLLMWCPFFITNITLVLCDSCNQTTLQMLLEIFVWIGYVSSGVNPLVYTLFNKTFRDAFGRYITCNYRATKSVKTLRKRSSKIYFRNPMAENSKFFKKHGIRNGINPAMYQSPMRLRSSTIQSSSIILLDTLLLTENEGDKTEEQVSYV
- ASSAY_DETAILS: Gq-mediated calcium flux FLIPR assay
- PARTICULARS: read-out: Gq calcium flux EC50; 5-HT2BR wild-type, agonist mode, N=3
MEASURED_PROPERTY: pEC50
Answers are plain numbers, as −log10 of the molar value.

>  <COMPOUND>
Cc1ccc2[nH]c3c(c2c1)CCNC3Cc1ccccc1Cl (centres unmarked) [2-ClBenzyl]

>  <ASSAY_VALUE>
7.46

$$$$

From here, focus on the item given below.
Form entry - test system: 5-HT2BR wild-type (Homo sapiens); read-out: pEC50; compound: COc1ccc(CC2NCCc3c2[nH]c2ccccc32)c(Cl)c1OC (centres unmarked) [des-methyl LY266097 analog]
7.70
